The reported numbers originate from patent US20120135923A1.

# tgt: T1, human melanocortin receptor subtype 1 (hMC1-R) (human, UniProt Q01726 1-317)
# T1 construct: whole, on cells; membranes of CHO-K1 cells
# assay procedure: [125I]-NDP-α-MSH competition, membranes
Bridge positions count the residues as written; N and C are the ends. Square brackets hold non-standard residues; d marks the D form. Ends that are not written are not given here. 1Nal = N[C@@H](Cc1cccc2ccccc12)C(=O)O; d2Nal = N[C@H](Cc1ccc2ccccc2c1)C(=O)O; Ac6c = NC1(C(=O)O)CCCCC1; βAla = NCCC(=O)O
// boundary case: Ki equal to 7 nM maps to Not satisfied; strictly smaller maps to Satisfied

[[record]]
binder = "GCEH[dF]RWC-NH2 (disulfide 2-8; also: hydantoin ring from C(O) with Gly1-Cys2) [c[Hydantoin(C(O)-(Gly-Cys))-Glu-His-D-Phe-Arg-Trp-Cys]-NH2]"
group_label = "Not satisfied"

[[record]]
binder = "CEHXRXACPPKDXYGRKKRRQRRR (N-terminal Ac; D-2-Nal at 4; Bal at 6; β-Ala at 13; disulfide Cys1-Cys8; C-terminal NH2)"
group_label = "Satisfied"

[[record]]
binder = "XCAHFRWCXXYGRKKRRQRRR (N-terminal Ac; Nle at 1; D-Ala at 3; D-Phe at 5; Doc at 9 and 10; disulfide Cys2-Cys8; C-terminal NH2) [Ac-Nle-c(Cys-D-Ala-His-D-Phe-Arg-Trp-Cys)-(Doc)2-Tyr-Gly-Arg-Lys-Lys-Arg-Arg-Gln-Arg-Arg-Arg-NH2]"
group_label = "Satisfied"

[[record]]
binder = "D[Ac6c][d2Nal]RWK-NH2 (lactam 1-6; also: hydantoin ring: N-terminal N of Asp1 and backbone N of residue 2 bridged by one C(O), bridge at N via C(O), other end not in the chain) [c[Hydantoin(C(O)-(Asp-A6c))-D-2-Nal-Arg-Trp-Lys]-NH2]"
group_label = "Not satisfied"

[[record]]
binder = "Ac-CEH[d2Nal]R[1Nal]ACPPKD[βAla]RRRRRRQRRR-NH2 (disulfide 1-8) [Ac-c(Cys-Glu-His-D-2-Nal-Arg-1-Nal-Ala-Cys)-Pro-Pro-Lys-Asp-β-[…]NH2]"
group_label = "Satisfied"

